Where do these numbers come from? They come from patent US9371331B2.

Field: pIC50. Provide a value for each of the compounds that follow.
# testTarget: Y641N EZH2 (Homo sapiens, UniProt Q15910, Y641N)
# Sequence (Q15910 whole entry Y641N): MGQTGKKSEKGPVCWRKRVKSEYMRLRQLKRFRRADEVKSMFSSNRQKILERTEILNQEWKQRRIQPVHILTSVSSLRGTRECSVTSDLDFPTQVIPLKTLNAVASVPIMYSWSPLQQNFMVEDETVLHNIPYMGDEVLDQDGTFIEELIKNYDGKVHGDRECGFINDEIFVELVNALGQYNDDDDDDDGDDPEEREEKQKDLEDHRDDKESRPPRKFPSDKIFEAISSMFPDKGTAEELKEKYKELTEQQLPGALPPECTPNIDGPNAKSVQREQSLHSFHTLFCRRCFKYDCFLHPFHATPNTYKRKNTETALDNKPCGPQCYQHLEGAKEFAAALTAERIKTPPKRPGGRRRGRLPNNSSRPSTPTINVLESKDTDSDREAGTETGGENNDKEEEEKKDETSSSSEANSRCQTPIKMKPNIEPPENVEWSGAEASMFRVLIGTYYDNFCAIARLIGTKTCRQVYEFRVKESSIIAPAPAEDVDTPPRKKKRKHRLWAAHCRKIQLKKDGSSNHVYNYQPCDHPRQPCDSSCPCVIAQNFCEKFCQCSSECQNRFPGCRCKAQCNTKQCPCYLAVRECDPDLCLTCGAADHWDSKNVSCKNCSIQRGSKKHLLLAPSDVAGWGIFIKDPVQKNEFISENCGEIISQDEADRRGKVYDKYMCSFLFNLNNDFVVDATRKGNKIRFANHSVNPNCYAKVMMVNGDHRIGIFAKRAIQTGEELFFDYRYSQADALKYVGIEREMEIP
# Sequence (O75530 whole entry partner): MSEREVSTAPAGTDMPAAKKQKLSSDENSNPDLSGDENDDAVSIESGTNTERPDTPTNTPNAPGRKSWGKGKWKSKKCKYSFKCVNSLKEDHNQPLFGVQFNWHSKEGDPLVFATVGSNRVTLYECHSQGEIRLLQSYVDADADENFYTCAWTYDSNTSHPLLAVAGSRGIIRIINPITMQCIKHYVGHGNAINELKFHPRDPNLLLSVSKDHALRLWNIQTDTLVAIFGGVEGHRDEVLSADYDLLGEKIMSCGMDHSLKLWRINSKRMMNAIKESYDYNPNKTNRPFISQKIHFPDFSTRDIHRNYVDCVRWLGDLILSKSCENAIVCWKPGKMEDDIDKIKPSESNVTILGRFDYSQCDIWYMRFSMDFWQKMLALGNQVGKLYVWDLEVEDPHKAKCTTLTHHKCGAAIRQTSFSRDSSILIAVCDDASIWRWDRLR
# Sequence (Q15022 whole entry partner): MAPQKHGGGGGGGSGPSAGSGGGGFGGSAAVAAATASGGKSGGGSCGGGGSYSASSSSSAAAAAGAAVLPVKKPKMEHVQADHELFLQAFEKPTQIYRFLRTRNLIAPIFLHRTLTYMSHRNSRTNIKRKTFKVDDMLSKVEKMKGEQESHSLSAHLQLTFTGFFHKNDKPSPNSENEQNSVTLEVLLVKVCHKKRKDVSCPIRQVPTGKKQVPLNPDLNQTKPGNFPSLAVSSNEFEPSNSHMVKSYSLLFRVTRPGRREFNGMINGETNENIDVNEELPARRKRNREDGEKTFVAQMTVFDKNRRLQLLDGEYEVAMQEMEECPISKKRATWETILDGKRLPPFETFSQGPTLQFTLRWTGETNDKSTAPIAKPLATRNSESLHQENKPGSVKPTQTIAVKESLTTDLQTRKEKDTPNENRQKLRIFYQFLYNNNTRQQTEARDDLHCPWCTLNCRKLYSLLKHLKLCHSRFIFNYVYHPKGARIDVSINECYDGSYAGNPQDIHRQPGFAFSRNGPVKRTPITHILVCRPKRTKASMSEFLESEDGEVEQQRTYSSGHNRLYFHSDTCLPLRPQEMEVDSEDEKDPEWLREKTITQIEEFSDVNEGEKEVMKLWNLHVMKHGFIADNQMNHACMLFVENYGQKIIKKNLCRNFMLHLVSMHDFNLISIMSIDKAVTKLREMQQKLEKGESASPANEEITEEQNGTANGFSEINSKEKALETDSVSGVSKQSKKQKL
# testDetails: Y641N EZH2 assay: as EZH2 assay, with reconstituted H3K27Me2 oligonucleosomes as substrate
# Type: biochemical
# condition: Y641N EZH2 IC50, Y641N mutant EZH2, H3K27Me2 oligonucleosome substrate
pIC50: −log10 of the molar value. Structures can show the parent of a compound that is named as a salt.

Consider the following illustrative entries.
compound	pIC50
Cc1cc(C)c(CNC(=O)c2c(C)n(Cc3cncnc3)c3ccccc23)c(=O)[nH]1	5.00 to 6.00
COc1cc(C)[nH]c(=O)c1CNC(=O)c1c(C)n([C@H](C)[C@H](OC)C2CC2)c2ncccc12 (single isomer, unassigned) [Compound 292]	6.00 to 7.00
COc1cc(C)[nH]c(=O)c1CNC(=O)c1c(C)n(C(C)C2CCOCC2)c2ncncc12 (single isomer, unassigned)	> 7.00
Cc1cc(C)c(CNC(=O)c2c(C)n(C(C)CCO)c3ncccc23)c(=O)[nH]1 (racemic)	5.00 to 6.00
Cc1cc(C)c(CNC(=O)c2c(C)n(C(C)C3CCN(C4CNC4)CC3)c3ccccc23)c(=O)[nH]1 (single isomer, unassigned) [Compound 376, hydrochloride]	> 7.00

Items follow; give pIC50 for each.
1. COc1cc(C)[nH]c(=O)c1CNC(=O)c1c(C)n(C(C)C2CCN(CCO)CC2)c2ccccc12 (single isomer, unassigned)
2. COc1cc(C)[nH]c(=O)c1CNC(=O)c1c(C)n([C@H](C)[C@H](OC)C2CC2)c2ncccc12 (single isomer, unassigned) [Compound 286]
3. CCOC(=O)CN1CCC(C(C)n2c(C)c(C(=O)NCc3c(OC)cc(C)[nH]c3=O)c3ccccc32)CC1 (single isomer, unassigned)

Reply:
1. > 7.00
2. 6.00 to 7.00
3. > 7.00
